# Tested on: CHEK1
# Recorded Conditions: concentration: 1 μM, replicates: in singlicate; n = 1;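 note: KINOMEscan kinase panel screen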
Listed here: items and their measured %Inh.
Attribute Measured: %Inh

>>> experimental_result("N#Cc1cnc2cc(-c3cnc(CNCCN4CCOCC4)s3)ccc2c1Nc1ccc(Oc2ccccc2)cc1")
"0%"
>>> experimental_result("Nc1ncnc2scc(-c3ccc(NC(=O)Cc4cc(F)ccc4F)cc3)c12.O=C(O)C(F)(F)F")
"9%"
>>> experimental_result("Cc1ccc(NC(=O)c2ccnc(N3CCCCC3)c2)cc1-c1ccc(C(=O)NCC2CC2)cc1")
"0%"
>>> experimental_result("CN(C)CCNS(=O)(=O)c1ccc(-c2ccnc3[nH]ccc23)cc1")
"35%"
>>> experimental_result("CN(C)c1ncnc2nc[nH]c12")
"0%"
>>> experimental_result("O=C(Nc1c(F)cccc1F)c1cc(C(=O)c2ccccc2F)c[nH]1")
"0%"
>>> experimental_result("Nc1cccc(-c2ccc3c(N)n[nH]c3c2)c1")
"0%"
>>> experimental_result("O=C(Nc1n[nH]c2nc(-c3ccccc3)ccc12)C1CC1")
"0%"
>>> experimental_result("Fc1cc(Cl)ccc1Nc1ccnc2cc(-c3ccc(CN4CCSCC4)o3)ccc12")
"0%"

----------
# Tested on: QSK
# Recorded Conditions: concentration: 1 μM, replicates: in singlicate; n = 1
Attribute Measured: %Inh (%)

>>> experimental_result("Cn1cc(-c2ccc3c(c2)CCN3C(=O)Cc2cc(F)cc(C(F)(F)F)c2)c2c(N)ncnc21 [GSK2635225]")
10
>>> experimental_result("COc1ccc(NC(=O)c2ccoc2)cc1-c1ccc(C(=O)NCC2CC2)cc1 [GW810437]")
12
>>> experimental_result("N#Cc1cnc2cc(-c3cnc(CNCCN4CCOCC4)s3)ccc2c1Nc1ccc(Oc2ccccc2)cc1 [GW664114]")
0
>>> experimental_result("COc1cccc(C2=C(Nc3cccc(O)c3)C(=O)NC2=O)c1 [SB-390771]")
0

----------
# Tested on: FGR
# Recorded Conditions: concentration: 1 μM, replicates: in singlicate; n = 1
Attribute Measured: %Inh

>>> experimental_result("Cc1ccc(NC(=O)c2ccc(Cl)c(Cl)c2)cc1-c1ccc(C(=O)Nc2ccncc2)cc1 [GSK1398460]")
"26%"
>>> experimental_result("COc1cccc(C2=C(Nc3cccc(O)c3)C(=O)NC2=O)c1 [SB-390771]")
"33%"
>>> experimental_result("Nc1ncc(-c2cn[nH]c2)c2scc(-c3ccc4c(c3)CCN4C(=O)Cc3ccccc3)c12 [GSK2593067]")
"80%"
>>> experimental_result("CN1CCN(Cc2ccc(NC(=O)Nc3ccc(N(C)c4ccnc(Nc5ccc(CS(C)(=O)=O)cc5)n4)cc3)cc2)CC1.Cl [GW827654]")
"49%"
>>> experimental_result("Cc1cc(-c2c(-c3ccc(F)cc3)ncn2CCCN2CCOCC2)nc(N)n1 [SB-222517]")
"9%"

----------
# Tested on: WNK3
# Recorded Conditions: concentration: 1 μM, replicates: in singlicate; n = 1
Attribute Measured: %Inh (%)

>>> experimental_result("CNc1nccc(-c2ccc3c(N)n[nH]c3c2)n1")
4
>>> experimental_result("CCNc1nccc(-c2c(-c3ccc(F)cc3)ncn2C2CCN(C)CC2)n1")
0
>>> experimental_result("O=C(Nc1c(F)cccc1F)c1cc(C(=O)c2ccccc2F)c[nH]1")
0
>>> experimental_result("Cn1cc(-c2ccc3c(c2)CCN3C(=O)Cc2cc(F)cc(F)c2F)c2c(N)ncnc21")
23
>>> experimental_result("c1ccc(Oc2ccc(Nc3ccnc4cc(-c5ccc(CN6CCCCC6)o5)ccc34)cc2)nc1")
24
>>> experimental_result("CC(C)c1nc(-c2cccc(NS(=O)(=O)c3c(F)cccc3F)c2)c(-c2ccnc(Nc3ccc(N4CCOCC4)nc3)n2)s1.Cl")
5
>>> experimental_result("Nc1ncnc2scc(-c3ccc(NC(=O)Cc4cc(F)ccc4F)cc3)c12.O=C(O)C(F)(F)F")
0
>>> experimental_result("O=C(Nc1n[nH]c2nc(-c3ccccc3)ccc12)C1CC1")
36

----------
Recorded %Inh, one value per entry.
# Tested on: LRRK2
# Recorded Conditions: concentration: 1 μM, replicates: in singlicate; n = 1
Attribute Measured: %Inh (%)

>>> experimental_result("COc1ccc(C2=C(Nc3cccc(O)c3)C(=O)NC2=O)cc1")
5
>>> experimental_result("Nc1cccc(-c2ccc3c(N)n[nH]c3c2)c1")
0
>>> experimental_result("O=C(Nc1n[nH]c2cc(-c3cccs3)ccc12)C1CC1")
0
>>> experimental_result("COc1cc(Nc2nccc(N3CCC(NS(=O)(=O)c4ccc(NC(C)=O)cc4)CC3)n2)cc(OC)c1OC")
29
>>> experimental_result("CN(c1ccc(F)c(NC(=O)c2cccc(OC(C)(C)C#N)c2Cl)c1)c1ccc2nc(NC(=O)C3CC3)sc2n1")
9
>>> experimental_result("Cc1ccc(NC(=O)c2ccnc(N3CCCCC3)c2)cc1-c1ccc(C(=O)NCC2CC2)cc1")
0
>>> experimental_result("Cc1ccc(Nc2ccnc(Nc3ccc(C)c(F)c3)n2)cc1O.Cl")
57
>>> experimental_result("CCn1c(-c2nonc2N)nc2c(-c3ccccc3)ncc(OCCCN)c21.O=C(O)C(F)(F)F.O=C(O)C(F)(F)F")
28
>>> experimental_result("O=C(Nc1c(F)cccc1F)c1cc(C(=O)c2ccccc2F)c[nH]1")
6

----------
# System: BRSK2
# Recorded Conditions: concentration: 1 μM, replicates: in singlicate; n = 1
Attribute Measured: %Inh (%)

>>> experimental_result("O=C(Nc1c(F)cccc1F)c1cc(C(=O)c2ccccc2F)c[nH]1 [GSK1326180]")
0
>>> experimental_result("CS(=O)(=O)c1cccc(CNc2nc(Nc3ccc4c(c3)CCC(=O)N4)ncc2C(F)(F)F)c1")
0
>>> experimental_result("Cc1ccc(NC(=O)c2cccc(N3CCCCC3)c2)cc1-c1ccc(C(=O)NCC2CC2)cc1 [GSK1917008]")
3
>>> experimental_result("N#CC1(c2cccc(C(=O)Nc3cccc(Oc4ccc5nc(NC(=O)C6CC6)sc5n4)c3)c2)CC1")
0
>>> experimental_result("O=C(Nc1n[nH]c2nc(-c3ccccc3O)ccc12)C1CC1 [SB-711880]")
19
>>> experimental_result("Cc1ccc(NC(=O)c2ccnc(N3CCCCC3)c2)cc1-c1ccc(C(=O)NCC2CC2)cc1 [GW775610]")
6
>>> experimental_result("COc1cccc(C2=C(Nc3cccc(O)c3)C(=O)NC2=O)c1 [SB-390771]")
7
>>> experimental_result("Cl.O=C(Nc1ccc(Oc2ccc3[nH]c(NC(=O)c4ccco4)nc3c2)cc1)Nc1cc(C(F)(F)F)ccc1F [GW683134]")
0
>>> experimental_result("CC(C)c1nc(-c2cccc(NS(=O)(=O)c3c(F)cccc3F)c2)c(-c2ccnc(Nc3ccc(N4CCOCC4)nc3)n2)s1.Cl [GSK1723980]")
37
>>> experimental_result("COc1cccc(-c2nc(-c3ccccc3)[nH]c2-c2ccncc2)c1 [SB-610250]")
0
>>> experimental_result("CN(C)CCOc1ccc(-c2cc(-c3ccc(Cl)c(O)c3)c(-c3ccncc3)[nH]2)cc1.Cl.Cl [SB-684387]")
0
>>> experimental_result("O=C(Nc1n[nH]c2nc(-c3cccc(O)c3)ccc12)C1CC1 [SB-711805]")
17
>>> experimental_result("Nc1ncc(-c2cn[nH]c2)c2scc(-c3ccc4c(c3)CCN4C(=O)Cc3ccccc3)c12 [GSK2593067]")
0
>>> experimental_result("COc1ccc(NC(=O)c2ccoc2)cc1-c1ccc(C(=O)NCC2CC2)cc1 [GW810437]")
4
>>> experimental_result("CN(C)CCNS(=O)(=O)c1ccc(-c2ccnc3[nH]ccc23)cc1 [GSK977620]")
0
>>> experimental_result("N#Cc1cnc2cc(-c3cnc(CNCCN4CCOCC4)s3)ccc2c1Nc1ccc(Oc2ccccc2)cc1 [GW664114]")
44
>>> experimental_result("COc1cc(Nc2ccnc3cc(-c4ccncc4)ccc23)cc(OC)c1OC.Cl [GW494610]")
9

----------
# Test system: PRKR
# Construct: gene EIF2AK2
# Recorded Conditions: concentration: 1 μM, replicates: in singlicate; n = 1
%Inh overview
Attribute Measured: %Inh (%)

>>> experimental_result("COc1cc(Nc2nccc(N3CCC(NS(=O)(=O)c4ccc(NC(C)=O)cc4)CC3)n2)cc(OC)c1OC [GSK1379825]")
0
>>> experimental_result("COc1cccc2c(-c3ccncc3)c(-c3ccc(F)cc3)nn12 [GW468513]")
0
>>> experimental_result("Cc1ccc(NC(=O)c2cccc(N3CCCCC3)c2)cc1-c1ccc(C(=O)NCC2CC2)cc1 [GSK1917008]")
0
>>> experimental_result("Cl.Cl.NC(CNC(=O)c1cc(Br)c(-c2ccnc3[nH]ccc23)s1)c1ccccc1 (stereo not shown) [GSK1322949]")
6
